measurement_target: EBOV GP[change] (Ebola virus) (UniProt Q05320)
Sequence (Q05320 33-501, chain 1 of 2): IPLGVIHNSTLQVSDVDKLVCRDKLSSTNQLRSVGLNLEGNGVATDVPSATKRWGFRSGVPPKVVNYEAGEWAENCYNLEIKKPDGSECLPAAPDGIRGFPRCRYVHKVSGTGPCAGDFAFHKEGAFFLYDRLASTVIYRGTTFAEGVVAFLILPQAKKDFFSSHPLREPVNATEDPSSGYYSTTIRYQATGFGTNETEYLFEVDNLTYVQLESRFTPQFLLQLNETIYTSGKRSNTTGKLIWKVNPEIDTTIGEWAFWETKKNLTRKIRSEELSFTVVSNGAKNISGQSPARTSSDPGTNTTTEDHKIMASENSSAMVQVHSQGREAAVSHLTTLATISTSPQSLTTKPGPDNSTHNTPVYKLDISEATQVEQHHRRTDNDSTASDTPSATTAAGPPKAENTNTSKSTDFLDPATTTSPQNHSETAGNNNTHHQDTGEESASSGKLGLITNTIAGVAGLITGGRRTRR
Sequence (Q05320 502-650, chain 2 of 2): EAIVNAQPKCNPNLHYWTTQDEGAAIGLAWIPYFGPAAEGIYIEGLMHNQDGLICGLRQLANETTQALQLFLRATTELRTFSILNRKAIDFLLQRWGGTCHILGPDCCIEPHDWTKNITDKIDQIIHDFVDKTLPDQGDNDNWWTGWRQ
observable: pKd
Remember, pKd is on a log scale: it is -log10 of the molar concentration.

{"binder": "PE-87 F109A (antibody, V domains shown) VH: QVQLVQSGVTLVQPGGSLRVSCAASGFTFSSYAMSWVRQAPGKGLEWVSAISGLGGSTYYADSVKGRFTISRDNSKNTLYLQMNSLRAEDTAVYYCAKDHRVWAAGYHADYWGQGALVTVSS VL: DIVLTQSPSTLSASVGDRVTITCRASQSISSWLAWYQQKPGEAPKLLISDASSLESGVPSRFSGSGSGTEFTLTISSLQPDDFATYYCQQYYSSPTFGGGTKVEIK", "test_result": 7.43}

Query block: Complete the entry with pKd for PE-87 D110A (antibody, V domains shown) VH: QVQLVQSGVTLVQPGGSLRVSCAASGFTFSSYAMSWVRQAPGKGLEWVSAISGLGGSTYYADSVKGRFTISRDNSKNTLYLQMNSLRAEDTAVYYCAKDHRVWAAGYHFAYWGQGALVTVSS VL: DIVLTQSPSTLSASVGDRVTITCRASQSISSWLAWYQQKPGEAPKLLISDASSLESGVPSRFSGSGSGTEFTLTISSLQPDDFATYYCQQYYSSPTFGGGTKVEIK
Result block: 8.89

Query block: Complete the entry with pKd for PE-87 D99A (antibody, V domains shown) VH: QVQLVQSGVTLVQPGGSLRVSCAASGFTFSSYAMSWVRQAPGKGLEWVSAISGLGGSTYYADSVKGRFTISRDNSKNTLYLQMNSLRAEDTAVYYCAKAHRVWAAGYHFDYWGQGALVTVSS VL: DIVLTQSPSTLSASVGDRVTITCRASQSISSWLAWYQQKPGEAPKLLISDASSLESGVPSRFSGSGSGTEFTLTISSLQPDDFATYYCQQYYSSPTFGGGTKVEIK
Result block: 7.13

Source of measurements: patent US20180244758A1
